Residues, ends and D or L forms follow the SMILES beside them. *: point of attachment. Cbz = O=C(OCc1ccccc1)*
result_type: IC50 (nM)
Answer with a number only, understood to be in nM.

// assay SARS-CoV-2 M^pro (Severe acute respiratory syndrome coronavirus 2, UniProt P0DTD1), entry CSCC[C@@H](C=O)NC(=O)[C@H](CC(C)C)NC(=O)OCc1ccccc1 [Jun8-102-2] (Cbz-Leu-Met-aldehyde) , IC50 value = 910

// assay SARS-CoV-2 M^pro (Severe acute respiratory syndrome coronavirus 2, UniProt P0DTD1), entry CCC[C@H](NC(=O)[C@H](CC(C)C)NC(=O)[C@H](CC(C)C)NC(=O)OCc1ccccc1)C(=O)C(=O)NC1CC1 [Jun8-18-4] , IC50 value = 340

// assay SARS-CoV-2 M^pro (Severe acute respiratory syndrome coronavirus 2, UniProt P0DTD1), entry CC(C)C[C@H](NC(=O)CNC(=O)OCc1ccccc1)C(=O)N[C@@H](CC[S+](C)[O-])C(=O)C(=O)NC1CC1 (stereo partly shown) [Jun9-24-1] , IC50 value = 510

// assay SARS-CoV-2 M^pro (Severe acute respiratory syndrome coronavirus 2, UniProt P0DTD1), entry CC(=O)N[C@@H](Cc1ccccc1)C(=O)N[C@@H](CC(C)C)C(=O)N[C@@H](CCS(C)(=O)=O)C(=O)C(=O)NC1CC1 [Jun9-56-3] , IC50 value = 140
